MEASURED QUANTITY: melting point

Worked examples, 6 compounds total:
C=CCOc1ccccc1C=C(C=O)C(C=O)=Cc1ccccc1OCC=C	117 to 118 °C
Cc1c(-c2cc([N+](=O)[O-])c(F)cc2F)ncnc1C(F)F	85 to 86 °C
COC(=O)Cc1cc(OC)c(OC)cc1[N+](=O)[O-]	110 to 111 °C
CN(C1=CC(=O)c2nccnc2C1=O)c1ccccc1	207 to 208 °C
COc1ccn2nc(-c3ccccc3)c(-c3ccc(=O)n(C4CCOC4)n3)c2c1 (configuration not stated)	207 to 208 °C
COCCOc1ccc(CCNC(=O)C(F)(F)F)cc1S(=O)(=O)N=CN(C)C	134 to 136 °C

Now for another entry.
The measured melting point associated with "N#Cc1c(N2CCCCC2)cc(-c2cccc3ccccc23)c2c1C(=O)c1ccccc1-2" reads 202 to 204 °C

* * *

The molecules listed here are annotated with their melting point.

Worked examples, 10 molecules total:
CC(C)n1c(C=O)c(-c2ccc(F)cc2)c(-c2ccc(F)cc2)c1C(=O)OCc1ccccc1	94 to 95 °C
CCS(=O)(=O)N1CCN(Cc2ccc(COc3cccc4c3CN(C3CCC(=O)NC3=O)C4=O)cc2)CC1 (stereo unspecified)	135 to 137 °C
Cc1oncc1-c1ccc(OC2SCC(O)C(O)C2O)cn1 (stereo unspecified)	184 °C
CCCNC(=O)[C@H](C)C[C@H](O)[C@H](CC1CCCCC1)NC(=O)[C@H](Cc1cscn1)NC(=O)OC(C)(C)C	182 to 184 °C
N#Cc1ccc(NC(CNCC(=O)O)[N+](=O)[O-])cc1 (stereo unspecified)	230 °C
Cc1cc(C)cc(-c2cc(O)c(Sc3ccccc3)c(=O)o2)c1	210 to 211 °C
O=C(O)c1ccc(CN(C2CCCCC2)S(=O)(=O)c2ccc(F)cc2)cc1	218 to 220 °C
COC(=O)N1CC(Cc2ccc(OC)c(OC3CCCC3)c2)N(C(=O)OC)C1=O (stereo unspecified)	138 to 140 °C
COCC(=O)N[C@H]1CC[C@H](Nc2nccc(-n3nnc4ccccc43)n2)CC1	234 to 235 °C
COc1ccc(C2CNCc3cc(C)ccc32)cc1OC (stereo unspecified)	129 to 131 °C

The measured melting point associated with COc1ccc(CCCC(O)CCC(=O)O)cc1 (stereo unspecified) reads 67 to 68 °C

The measured melting point associated with "Oc1ccccc1-c1ncc2ncc(Cl)cc2n1" reads 211 to 212 °C

The measured melting point associated with CC(C)(O)CC1NC(=O)c2ccccc21 (stereo unspecified) reads 122 to 123 °C

The measured melting point associated with Cc1nc2c(OC3SCC(O)C(O)C3O)cccc2n1C (stereo unspecified) reads 153 °C

The measured melting point associated with "OC1(c2ccc3c(c2)OCO3)CCC2(CC1)OCCO2" reads 95 to 96 °C

* * *

MEASURED QUANTITY: melting point (°C)

N/C(=C1\C(=O)c2cc(Cl)ccc2S1=O)c1ccccc1Cl (stereo not given)	248

(I) CC1CN(c2ccc(-c3[nH]nc4c3C(=O)c3c(NC(=O)NN5CCOCC5)cccc3-4)cc2)CCN1 (stereo not given)
(II) CC(CC(=O)O)Nc1cccc(Cl)c1 (stereo not given)
(III) Oc1cccc(C2=CCCN(CCc3ccccc3)C2)c1
Order the entries by their reported melting point, beginning at the minimum. Please, when replying, give the labels in the order that was requested. II, III, I
(II: 50 °C, III: 155 °C, I: 230 °C)
